B1: LOC100129726 (parent)
chain: AKAADSPTRNDLESGLGHFSLRVH

Variants of: B1
Assay: protein stability index of a GFP-peptide fusion (GPS, HEK-293T) (PSI 1-6); higher = more stable;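 note: lentivirally expressed fusions sorted by FACS into six bins by GFP to DsRed ratio, PSI derived from sequencing read proportions per bin multiplied by bin number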
Conditions: c terminus: a fixed tail appended
endpoint: protein stability index
Respond numerically, and do not add a unit to the figure.

For orientation, consider the following solved cases.
-- ask Would you kindly share the measured protein stability index for `F19K` ?
-- reply 4.63

-- ask Would you kindly share the measured protein stability index for `G17D` ?
-- reply 3.82

-- ask Would you kindly share the measured protein stability index for `D11S` ?
-- reply 2.64

-- ask Would you kindly share the measured protein stability index for `A3E` ?
-- reply 3.8

-- ask Would you kindly share the measured protein stability index for `K2F` ?
-- reply 2.42

-- ask Would you kindly share the measured protein stability index for `G17M` ?
-- reply 2.27

-- ask Would you kindly share the measured protein stability index for `L21H` ?
-- reply 3.55

-- ask Would you kindly share the measured protein stability index for `A1P` ?
-- reply 3.17

Shift focus to the following entry.
-- ask Would you kindly share the measured protein stability index for `H18A` ?
-- reply 3.25
